test system: CEM-DNR-bulk (T-lymfoblastic leukemia resistant to doxorubicin); experiment: Cytotoxic MTT test, CEM-DNR-bulk; format: cell-based; conditions: CEM-DNR-BULK cells, 72 h
measured-endpoint: pIC50
FYI, pIC50 means -log10 of a concentration in mol per litre.

For CC(=O)OC[C@H]1O[C@H](OC[C@@]23CC[C@]4(C)C(CCC5[C@@]6(C)CC[C@H](OC(C)=O)C(C)(C)C6CC[C@]54C)C2=C(C(C)C)C(=O)C3)C[C@@H](OC(C)=O)[C@@H]1OC(C)=O (stereo partly drawn) [Compound 1b] , what is its reported pIC50? 4.38

# input compound: CC(=O)OC[C@H]1O[C@H](OC[C@@]23CC[C@]4(C)C(CCC5[C@@]6(C)CC[C@H](OC(C)=O)C(C)(C)C6CC[C@]54C)C2=C(C(C)C)C(=O)C3)C[C@@H](OC(C)=O)[C@H]1OC(C)=O (stereo partly drawn) [Compound 1a] ; wanted: its pIC50 4.90

Consider the compound CC(=O)OC[C@H]1O[C@H](OC[C@@]23CC[C@]4(C)C(CCC5[C@@]6(C)CC[C@H](OC(C)=O)C(C)(C)C6CC[C@]54C)C2=C(C(C)C)C(=O)C3)C[C@@H](Br)[C@@H]1OC(C)=O (stereo partly drawn) [Compound 1c] and give its measured pIC50. 4.57

Consider the compound shown here: COC(=O)[C@@]12CC[C@]3(C)C(CCC4[C@@]5(C)CC[C@H](O[C@@H]6C[C@@H](O)[C@H](O)[C@@H](CO)O6)C(C)(C)C5CC[C@]43C)C1=C(C(C)C)C(=O)C2 (stereo partly drawn) [Compound 3b] What is its recorded pIC50? 4.60

What does the data say about its pIC50? Entry: COC(=O)[C@@]12CC[C@]3(C)C(CCC4[C@@]5(C)CC[C@H](O[C@@H]6C[C@@H](O)[C@@H](O)[C@@H](CO)O6)C(C)(C)C5CC[C@]43C)C1=C(C(C)C)C(=O)C2 (stereo partly drawn) [Compound 3a] 4.46

Please give the measured pIC50 for this compound: COC(=O)[C@@]12CC[C@]3(C)C(CCC4[C@@]5(C)CC[C@H](OC6CC(OC(C)=O)C(OC(C)=O)C(COC(C)=O)O6)C(C)(C)C5CC[C@]43C)C1=C(C(C)C)C(=O)C2 (stereo partly drawn) [Compound 2b] 4.60

---

test system: K562-tax (human myeloid leukemia resistant to taxol); experiment: Cytotoxic MTT test, K562-tax; format: cell-based; settings: Homo sapiens, K562-tax cells, 72 h
measured-endpoint: IC50 (nM)
# number only, unit nM dropped from output

Find the recorded IC50 belonging to COC(=O)[C@@]12CC[C@]3(C)C(CCC4[C@@]5(C)CC[C@H](OC6CC(OC(C)=O)C(OC(C)=O)C(COC(C)=O)O6)C(C)(C)C5CC[C@]43C)C1=C(C(C)C)C(=O)C2 (stereo partly shown) [Compound 2b] and report it. 3000
